Source of measurements: paper PMC8471537

biological target: UniProt:O42275; assay: Ellman assay, absorbance at […] nm; assay type: biochemical
Sequence (O42275 24-633): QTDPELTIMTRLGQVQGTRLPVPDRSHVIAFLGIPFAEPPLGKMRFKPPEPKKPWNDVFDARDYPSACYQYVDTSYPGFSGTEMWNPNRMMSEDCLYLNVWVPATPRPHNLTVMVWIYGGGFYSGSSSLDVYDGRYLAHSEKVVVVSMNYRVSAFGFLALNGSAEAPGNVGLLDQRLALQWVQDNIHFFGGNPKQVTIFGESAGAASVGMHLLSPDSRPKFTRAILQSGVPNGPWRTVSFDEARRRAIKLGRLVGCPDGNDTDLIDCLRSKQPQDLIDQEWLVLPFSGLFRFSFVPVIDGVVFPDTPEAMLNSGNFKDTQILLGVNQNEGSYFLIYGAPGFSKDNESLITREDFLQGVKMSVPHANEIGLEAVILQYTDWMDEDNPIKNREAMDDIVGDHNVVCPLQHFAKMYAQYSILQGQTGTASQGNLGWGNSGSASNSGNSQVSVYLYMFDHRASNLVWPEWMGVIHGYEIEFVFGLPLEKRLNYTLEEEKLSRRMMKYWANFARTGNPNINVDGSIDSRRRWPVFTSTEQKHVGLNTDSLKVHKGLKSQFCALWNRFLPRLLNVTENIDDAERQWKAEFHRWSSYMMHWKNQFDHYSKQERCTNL
Assay metric: IC50 (µM)
Only the number, expressed in µM, is required.

Use these answered entries as a reference point.
CC(=O)Nc1nnc(-c2c(O)ccc3c(C)cc(=O)oc23)s1 :: 0.181
CNc1nnc(-c2c(O)ccc3c(C)cc(=O)oc23)s1 :: 0.211
Cc1cc(=O)oc2c(-c3nnc(Nc4ccccc4)s3)c(O)ccc12 :: 0.299

Next item in the queue.
What is its IC50 for UniProt:O42275? Entry: "Cc1cc(=O)oc2c(-c3nnc(N)s3)c(O)ccc12" 0.218
